molecular target: T1, soluble human FcRn (shFcRn) (human, UniProt P55899 24-297; P61769 21-119); assay: SPR pH 6
T1 construct: Biotinylated for the ELISA, amine-coupled to a CM5 chip for SPR; also called biotinylated shFcRn
T1 sequence (P55899 24-297 limits assumed, chain 1 of 2): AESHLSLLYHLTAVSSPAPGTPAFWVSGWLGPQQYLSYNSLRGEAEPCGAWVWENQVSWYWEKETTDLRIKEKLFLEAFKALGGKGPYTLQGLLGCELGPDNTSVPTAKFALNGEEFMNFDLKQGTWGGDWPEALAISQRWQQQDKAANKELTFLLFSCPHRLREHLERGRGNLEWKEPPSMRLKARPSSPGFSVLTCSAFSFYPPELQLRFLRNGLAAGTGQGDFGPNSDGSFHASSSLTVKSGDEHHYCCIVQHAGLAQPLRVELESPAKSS
T1 sequence (P61769 21-119 limits assumed, chain 2 of 2): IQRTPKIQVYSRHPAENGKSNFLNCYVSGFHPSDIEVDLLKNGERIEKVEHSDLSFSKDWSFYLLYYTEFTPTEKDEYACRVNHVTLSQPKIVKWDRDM
Bridge positions count the residues as written; N and C are the ends. Square brackets hold non-standard residues; d marks the D form. Ends that are not written are not given here. Phe(4-amidino) = N=C(N)c1ccc(C[C@H](N)C(=O)O)cc1; NMeL = CN[C@@H](CC(C)C)C(=O)O; Pen = CC(C)(S)[C@H](N)C(=O)O; Sar = CNCC(=O)O
endpoint name: Kd (nM)
Reply numerically in nM, unit not repeated.

Field: example entries. Status: answers known.
- RF[Pen]TG[His(Me)2]FGGLYPC-NH2 (disulfide 3-13) [Peptide No. 260]: 190
- QRF[Pen]TGHFGGLYPCNGP-NH2 (disulfide 4-14; N-terminus assumed; SMILES CC(C)C[C@@H]1NC(=O)CNC(=O)CNC(=O)[C@H](Cc2ccccc2)NC(=O)[C@H](Cc2c[nH]cn2)NC(=O)CNC(=O)[C@H]([C@@H](C)O)NC(=O)[C@@H](NC(=O)[C@H](Cc2ccccc2)NC(=O)[C@H](CCCNC(=N)N)NC(=O)[C@@H](N)CCC(N)=O)C(C)(C)SSC[C@@H](C(=O)N[C@@H](CC(N)=O)C(=O)NCC(=O)N2CCC[C@H]2C(N)=O)NC(=O)[C@@H]2CCCN2C(=O)[C@H](Cc2ccc(O)cc2)NC1=O) [Peptide No. 32]: 250
- RF[Pen]TG[Phe(4-amidino)]FG[Sar][NMeL]YPC-NH2 (disulfide 3-13; N-terminus assumed; SMILES CC(C)C[C@H]1C(=O)N[C@@H](Cc2ccc(O)cc2)C(=O)N2CCC[C@H]2C(=O)N[C@H](C(N)=O)CSSC(C)(C)[C@H](NC(=O)[C@H](Cc2ccccc2)NC(=O)[C@@H](N)CCCNC(=N)N)C(=O)N[C@@H]([C@@H](C)O)C(=O)NCC(=O)N[C@@H](Cc2ccc(C(=N)N)cc2)C(=O)N[C@@H](Cc2ccccc2)C(=O)NCC(=O)N(C)CC(=O)N1C) [Peptide No. 257]: 74

Reported Kd for RF[Pen]TGKFG[Sar][NMeL]YPC-NH2 (disulfide 3-13; N-terminus assumed; SMILES CC(C)C[C@H]1C(=O)N[C@@H](Cc2ccc(O)cc2)C(=O)N2CCC[C@H]2C(=O)N[C@H](C(N)=O)CSSC(C)(C)[C@H](NC(=O)[C@H](Cc2ccccc2)NC(=O)[C@@H](N)CCCNC(=N)N)C(=O)N[C@@H]([C@@H](C)O)C(=O)NCC(=O)N[C@@H](CCCCN)C(=O)N[C@@H](Cc2ccccc2)C(=O)NCC(=O)N(C)CC(=O)N1C) [Peptide No. 255] : what is it?
1300

Query: Kd; subject: RFCTGXFGGLYPC (Pen 3; Thz 6; Sar 9; NMeL 10; disulfide 3-13; C-terminal amide) [Peptide No. 248]
840
